Tested on: SF-295 CNS
Assay: NCI tumour cell line growth inhibition, 48 h
readout_type: TGI

C[N+](C)(C)CC1CCCC(C[N+](C)(C)C)C1O (stereo unspecified) ... > 100 µM

Batch request: TGI for each of the following molecules.
1. CCCCCCCCCCCCOP(N)(=O)OCCCCCCCCCCCC
2. O=C1C=CC(=O)c2c(Cl)ccc(O)c21
3. CC1CC[C@]2(C(=O)O)CCC3(C)C(=CCC4[C@@]5(C)CC[C@H](OS(=O)(=O)c6ccccc6)C(C)(C)C5CC[C@]43C)[C@@H]2[C@H]1C (stereo partly specified)
4. NC(=O)CO/N=C1/C(c2c(O)[nH]c3ccccc23)=Nc2ccccc21
5. COc1cc(/C=C(\C#N)C(N)=C(C#N)C#N)cc(O)c1O

["> 100 µM", "> 57 µM", "> 100 µM", "> 100 µM", "> 100 µM"]

###

System: A498 renal
Assay: NCI tumour cell line growth inhibition, 48 h
What TGI was measured for each of the following?

Cc1ccc(S(=O)(=O)n2cc(C#N)c(C#N)c2)cc1 ... 71.9 µM

Okay, here is my list. What is TGI for each of these?
1. C=[CH][Sn]([CH]=C)([O]c1cccc2cccnc12)[O]c1cccc2cccnc12
2. Cc1cc(Cl)cc2c1NC(=O)C2=O (tested in a mixture with another compound)

1: 14.2 µM; 2: > 100 µM

###

Assignment: determine reported TGI for the given compounds.
System: EKVX NSCLC
Experiment: NCI tumour cell line growth inhibition, 48 h

COc1ccc(S(=O)(=O)N(C)CC(=O)O)cc1 ... > 100 µM

Each of the following entries comes with a recorded value; kindly state TGI for each.
1. Cc1[nH]c(=O)[nH]c(=S)c1C(=O)Nc1cccc2cc3ccccc3cc12
2. C=CC1CN2CCC1CC2C(O)c1ccnc2ccccc12 (stereo not drawn)
3. CCOP(=O)(OCC)C(C)(CC)NC(=O)C(C(F)(F)F)C(F)(F)F (stereo not drawn)
4. OCNCCNc1nc2ccccc2c2[nH]c3ccccc3c12
5. CO[C@H]1C[C@H](O[C@H]2CC[C@]3(C=O)[C@H]4CC[C@]5(C)[C@@H](C6=CC(=O)OC6)CC[C@]5(O)[C@@H]4CC[C@]3(O)C2)O[C@H](C)[C@H]1O

1. > 100 µM
2. > 100 µM
3. > 100 µM
4. 3.25 µM
5. 0.79 µM

Below are some compounds; for each one, tell me its TGI.
1. CS(=O)(=O)NC12CCC(c3ccccc31)c1ccccc12
2. COc1cc([N+](=O)[O-])c2ncccc2c1[N+](=O)[O-]

1. > 100 µM
2. 29.4 µM

###

System: OVCAR-4 ovarian
Test: NCI tumour cell line growth inhibition, 48 h
Kind request: treat 10 µM as inclusive, so TGI at 10 µM or higher is 1, anything lower is 0.

Use these answered entries as a reference point.
CSc1nc(NC(C)C)c2c(n1)Sc1nc3ccccc3n1C2O (stereo not drawn) ... 1
NC(=O)Cc1nc2c(=O)[nH]cnc2n1C1OC(CO)C(O)C1O (stereo not drawn) ... 1
C[N+](C)(C)CC1CCCC(C[N+](C)(C)C)C1O (stereo not drawn) ... 1

Check the entry CCCCCCCCCCCCCc1nn[nH]n1 : does TGI equal or exceed 10 µM?
1

Dear colleague, could you confirm whether COc1cc([N+](=O)[O-])c2ncccc2c1[N+](=O)[O-] has TGI at or above 10 µM?
0

Tell me whether TGI is at least 10 µM here: Cc1ccc(C(C)C)cc1NC(=O)Nc1ccc([N+](=O)[O-])cc1
1

Item O=C1CC(n2cccc2)c2c(Br)sc(Br)c21 (stereo not drawn) with TGI of 10 µM or above?
1

Say whether CCOc1ccc(C(CN2CCOCC2)C(C)=O)cc1OC (stereo not drawn) shows TGI of 10 µM or more.
1

###

System: RPMI-8226 leukemia
Assay: NCI tumour cell line growth inhibition, 48 h
Kindly state TGI for each of the entries shown.
Give bare numbers, in µM.

Some solved cases for reference:
O=C1CC(n2cccc2)c2c(Br)sc(Br)c21 (stereo not given) ... 27.4
Cc1cc2cc3c(cc2c(-c2ccc(N)cc2)n1)OCO3 ... 73.7
COc1cc([N+](=O)[O-])c2ncccc2c1[N+](=O)[O-] ... 26.5
COC1(OC)c2no[n+]([O-])c2C(OC)(OC)c2c1no[n+]2[O-] ... 87.8

Dear colleague, could you send me TGI for each of the items below? Thanks.
1. CCCCCCCCCCCCCc1nn[nH]n1
2. O=C(c1ccc(Cl)cc1)C1OC12C(=O)Nc1ccccc12 (stereo not given)
3. O=C1C=CC(=O)c2c(Cl)ccc(O)c21
4. COC(=O)c1c(C)nc(C)c(NO)c1-c1ccccc1C(F)(F)F
5. CO[C@H]1C[C@H](O[C@H]2CC[C@]3(C=O)[C@H]4CC[C@]5(C)[C@@H](C6=CC(=O)OC6)CC[C@]5(O)[C@@H]4CC[C@]3(O)C2)O[C@H](C)[C@H]1O
6. CC1(C)CC[C@]2(C(N)=O)CC[C@]3(C)C(=CC[C@@H]4[C@@]5(C)C/C(=C/c6ccncc6)C(=O)C(C)(C)[C@@H]5CC[C@]43C)[C@@H]2C1

1. 64.2
2. 10.2
3. 23.4
4. 70.6
5. 6.6
6. 4.44

Please give TGI for each item listed below.
1. O=C(Cc1csc2nc(-c3ccc(Br)cc3)cn12)N/N=C/c1ccc(O)cc1
2. CO[C@@]12[C@@H]3NC3CN1C1=C(C(=O)C(N)=C(C)C1=O)[C@@H]2COC(N)=O (stereo not given in full)
3. O=C(Nc1cccc(-n2cc(-c3ccncc3)c(-c3ccc(O)c(Cl)c3)n2)c1)c1cccc(C(F)(F)F)c1

[40.2, 27.8, 10.6]

###

System: HL-60(TB) leukemia
Assay: NCI tumour cell line growth inhibition, 48 h
Exercise: state measured TGI for each of the molecules provided.

Please review the entries below; each comes with its answer.
C/C(CC(=O)N(C(C)C)C(C)C)=N\NC(=O)c1ccncc1 ... > 100 µM
N[C@@H]1CCCC[C@@H]1N.O=P([O-])([O-])CN(CP(=O)([O-])[O-])CP(=O)([O-])[O-].[Pt+2] ... > 100 µM
Cn1c2ccccc2n2c3ncccc3c(=S)c(C#N)c12 ... > 100 µM
COC(OC)c1cc2c(cc1C(=O)[C@@]13CCC[C@@H]1NC(=O)O3)OCO2 ... > 100 µM
Nc1ccc(S(=O)(=O)Nc2cnc3c(Cl)cccc3n2)cc1 ... 637 µM

Required: TGI, one value per molecule below.
1. Cc1ccc(/C(O)=C/c2nc3ccc([N+](=O)[O-])cc3nc2/C=C(\O)c2ccc(C)cc2)cc1
2. COc1cccc(/C=C/C(=O)c2cc3c(N)c(C(=O)Nc4cccc5ccccc45)sc3nc2C)c1
3. C=CC1CN2CCC1CC2C(O)c1ccnc2ccccc12 (stereo not drawn)

1. > 100 µM
2. 2.61 µM
3. > 100 µM

###

Please provide measured TGI for the entries that follow.
Test system: NCI-H226 lung
Assay: NCI tumour cell line growth inhibition, 48 h

Reference set, count: 5
CC(=O)Oc1ccc2c(c1)CC[C@@H]1C2CC[C@]2(C)C(=O)NC(=O)CC12 (some centres undefined) ... > 100 µM
C(/Cc1ccc2c(c1)OCO2)=N\NC1=NCCCN1 ... > 100 µM
CCOP(=O)(Nc1ccc2oc(=O)c3ccccc3c2c1)OCC ... > 100 µM
Cc1nc(-c2cc3cc(Cl)ccc3oc2=O)cc2c1c(=O)oc1ccc(Cl)cc12 ... > 100 µM
CC1(C2CCC3(C)OC3C2)CO1 (centres undefined) ... > 100 µM

Please state, for each entry, its recorded TGI.
1. O=C(NCCCCCCCNC(=O)OCc1ccc2c(Cl)cc(Cl)c(O)c2n1)OCc1ccc2c(Cl)cc(Cl)c(O)c2n1
2. CC/C=C\C/C=C\C[C@H](O)C/C=C1/C(=O)C=C[C@@H]1C/C=C\CCCC(=O)OC
3. Cc1cc(Cl)ccc1Nc1nc(C(F)(F)F)ccc1C(=O)N1CCN(c2cccc(Cl)c2)CC1
4. O=S(=O)(c1ccc(O)c(C=Nc2ccc(Cl)cc2)c1)c1ccc(O)c(C=Nc2ccc(Cl)cc2)c1
5. Nc1ccc2c(c1)c(N)nn2C(=O)Nc1ccc(Cc2ccccc2)cc1

1. 1.59 µM
2. 3.79 µM
3. > 100 µM
4. > 100 µM
5. 38.3 µM

Please look at the items below and tell me TGI for each one, in order.
1. C/C(=N\Nc1nc2ccccc2[nH]1)c1cc2ccccc2cn1
2. CCC1CNC(=O)CC1CC(=O)OC (centres undefined)
3. C/C(CC(=O)N(C(C)C)C(C)C)=N\NC(=O)c1ccncc1
4. C#CCN(Cc1ccc2nc(N)[nH]c(=O)c2c1)c1ccc(C(=O)NC(CCC(=O)O)C(=O)O)cc1 (centres undefined)

["1.69 µM", "> 100 µM", "> 100 µM", "> 100 µM"]
